tested on: NCI-H23 lung; test: NCI-60 one-dose screen, 48 h (100 = growth as untreated, 0 = no growth, -100 = all killed); conditions: 10 µM unless noted
About 83,000 compounds went through this panel and 20% of them were active in at least one assay; those are over-represented in the sample as a whole.
Here the recorded growth is given for each entry.
Assay metric: growth (%)

>>> df
                                   molecule   measured_on  assay_result
0  COc1c2c(c(Br)c3c1C(CCc1ccccc1)N(C)CC3)OCO2 (centres undefined)  NCI-H23 lung          16.4
1        Cc1cnc2ccc(Oc3ccccc3-c3ccccc3)nn12  NCI-H23 lung          96.6
2  N#CC1=C(c2cccs2)Nc2c(c(-c3ccccc3)nn2-c2ccccc2)C12C(=O)Nc1ccc(Cl)cc12 (centres undefined)  NCI-H23 lung          23.8
3  O=C(Nc1ccc(Br)cc1)Nc1ccc(-c2ccc3c(c2)NC(=O)/C3=C\c2ccc[nH]2)cc1  NCI-H23 lung          30.7
4  COc1nc(N)ncc1-c1ccc2ncnc(N3CCc4cc(F)c(Cl)cc43)c2c1  NCI-H23 lung          34.2
5  CN1CCc2c(sc3ncnc(N/N=C/c4cccc(Cl)c4Cl)c23)C1  NCI-H23 lung         -6.68
6  Cc1cc(C)c2[nH]c(=O)c(C(c3nnnn3Cc3ccc4c(c3)OCO4)N3CCN(C)CC3)cc2c1 (centres undefined)  NCI-H23 lung           105
7  O=C(c1ccc(O)cc1)C1[C@H](c2ccccc2Br)[C@@H](c2ccccc2)NC12C(=O)Nc1ccccc12 (some centres undefined)  NCI-H23 lung          34.3
8  Oc1ccc(Cl)c(Nc2nc(SCCN3CCOCC3)nc3c2cnn3CC(Cl)c2ccc(Br)cc2)c1 (centres undefined)  NCI-H23 lung          31.8
